Molecular target: RPS6KB1 (human) (UniProt P23443)
Sequence (P23443 whole entry, looked up): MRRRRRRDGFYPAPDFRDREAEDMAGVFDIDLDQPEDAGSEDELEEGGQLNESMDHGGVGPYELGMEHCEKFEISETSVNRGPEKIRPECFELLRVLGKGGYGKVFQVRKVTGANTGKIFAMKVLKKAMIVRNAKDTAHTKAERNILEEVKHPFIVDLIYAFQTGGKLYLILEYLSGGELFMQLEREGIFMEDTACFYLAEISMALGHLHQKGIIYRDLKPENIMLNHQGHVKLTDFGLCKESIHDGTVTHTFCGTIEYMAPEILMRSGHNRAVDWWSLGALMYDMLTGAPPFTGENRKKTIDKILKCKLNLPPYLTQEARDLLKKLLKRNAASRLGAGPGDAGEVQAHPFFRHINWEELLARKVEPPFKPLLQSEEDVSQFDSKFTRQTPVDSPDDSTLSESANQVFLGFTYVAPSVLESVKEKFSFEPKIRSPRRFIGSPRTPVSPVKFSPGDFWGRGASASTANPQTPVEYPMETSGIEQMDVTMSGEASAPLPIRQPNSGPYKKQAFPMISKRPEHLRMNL
Assay: radiometric filter-binding kinase assay, Kinase HotSpot
Conditions: compound 0.5 µM; ATP 10 µM
# residual activity values compiled below
Output spec: scalar in %, unitless text.

O=C(O)c1ccc2c3c1cccc3c(=O)n1c3ccccc3nc21 95.9
O=c1c(-c2ccc(F)cc2)c(-c2ccncc2)[nH]n1-c1ccc(Cl)cc1 89.9
Nc1ncnc2c1cnn2-c1ccccc1 103

Then this molecule:
Report residual activity from RPS6KB1 (human) (UniProt P23443) testing of `O=C(c1ccccc1)c1ccc(N2CCOCC2)cc1O` 95.3

---

# residual activity values compiled below
Biological target: UniProtKB P45984
Sequence (P45984 whole entry, looked up): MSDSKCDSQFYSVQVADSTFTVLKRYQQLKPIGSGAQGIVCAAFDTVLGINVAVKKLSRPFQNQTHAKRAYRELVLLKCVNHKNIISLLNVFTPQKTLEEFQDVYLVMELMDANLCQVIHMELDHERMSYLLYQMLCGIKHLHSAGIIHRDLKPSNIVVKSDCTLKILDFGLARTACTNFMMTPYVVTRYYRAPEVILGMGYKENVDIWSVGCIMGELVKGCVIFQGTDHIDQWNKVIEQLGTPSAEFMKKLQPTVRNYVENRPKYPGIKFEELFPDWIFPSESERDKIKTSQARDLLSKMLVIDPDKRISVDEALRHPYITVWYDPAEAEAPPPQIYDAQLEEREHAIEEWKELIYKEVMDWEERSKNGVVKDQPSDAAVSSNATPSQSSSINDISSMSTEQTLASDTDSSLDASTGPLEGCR
Assay: radiometric filter-binding kinase assay, Kinase HotSpot
Conditions: compound 0.5 µM; ATP 10 µM
Output spec: scalar in %, unitless text.

Reference set, count: 3
FC(F)(F)c1ccc(/C=C/c2nc(COc3ccc(CCCCn4ccnn4)cc3)co2)cc1 106
O=C(c1ccccc1)c1ccc(N2CCOCC2)cc1O 98.9
N#Cc1c(NC(=O)c2cccc3ccccc23)sc2c1CCCC2 33.9

Retrieve residual activity measured for `CCCCc1c(-c2ccc(O)cc2)[nH]c2nccnc12` and print it. 90.2

Retrieve residual activity measured for `c1ccc(-c2cnc(Nc3ccc(OCCN4CCCC4)cc3)s2)cc1` and print it. 144

Retrieve residual activity measured for `O=c1c2ccccc2[nH]c(=S)n1CCN1CCC(=C(c2ccc(F)cc2)c2ccc(F)cc2)CC1` and print it. 97

Retrieve residual activity measured for `COc1cc2c(cc1OC)-c1[nH]nc(Nc3cccc(F)c3)c1C2` and print it. 75.9

Retrieve residual activity measured for `O=c1cc(N2CCOCC2)oc2c(-c3ccccc3)cccc12` and print it. 102

Retrieve residual activity measured for `O=c1c(-c2ccc(F)cc2)c(-c2ccncc2)[nH]n1-c1ccc(Cl)cc1` and print it. 6.07

Retrieve residual activity measured for `COc1cccc(-c2cc(=O)c3ccccc3o2)c1N` and print it. 89.8

---

Molecular target: MAP3K5 (human) (UniProt Q99683)
Sequence (Q99683 whole entry, looked up): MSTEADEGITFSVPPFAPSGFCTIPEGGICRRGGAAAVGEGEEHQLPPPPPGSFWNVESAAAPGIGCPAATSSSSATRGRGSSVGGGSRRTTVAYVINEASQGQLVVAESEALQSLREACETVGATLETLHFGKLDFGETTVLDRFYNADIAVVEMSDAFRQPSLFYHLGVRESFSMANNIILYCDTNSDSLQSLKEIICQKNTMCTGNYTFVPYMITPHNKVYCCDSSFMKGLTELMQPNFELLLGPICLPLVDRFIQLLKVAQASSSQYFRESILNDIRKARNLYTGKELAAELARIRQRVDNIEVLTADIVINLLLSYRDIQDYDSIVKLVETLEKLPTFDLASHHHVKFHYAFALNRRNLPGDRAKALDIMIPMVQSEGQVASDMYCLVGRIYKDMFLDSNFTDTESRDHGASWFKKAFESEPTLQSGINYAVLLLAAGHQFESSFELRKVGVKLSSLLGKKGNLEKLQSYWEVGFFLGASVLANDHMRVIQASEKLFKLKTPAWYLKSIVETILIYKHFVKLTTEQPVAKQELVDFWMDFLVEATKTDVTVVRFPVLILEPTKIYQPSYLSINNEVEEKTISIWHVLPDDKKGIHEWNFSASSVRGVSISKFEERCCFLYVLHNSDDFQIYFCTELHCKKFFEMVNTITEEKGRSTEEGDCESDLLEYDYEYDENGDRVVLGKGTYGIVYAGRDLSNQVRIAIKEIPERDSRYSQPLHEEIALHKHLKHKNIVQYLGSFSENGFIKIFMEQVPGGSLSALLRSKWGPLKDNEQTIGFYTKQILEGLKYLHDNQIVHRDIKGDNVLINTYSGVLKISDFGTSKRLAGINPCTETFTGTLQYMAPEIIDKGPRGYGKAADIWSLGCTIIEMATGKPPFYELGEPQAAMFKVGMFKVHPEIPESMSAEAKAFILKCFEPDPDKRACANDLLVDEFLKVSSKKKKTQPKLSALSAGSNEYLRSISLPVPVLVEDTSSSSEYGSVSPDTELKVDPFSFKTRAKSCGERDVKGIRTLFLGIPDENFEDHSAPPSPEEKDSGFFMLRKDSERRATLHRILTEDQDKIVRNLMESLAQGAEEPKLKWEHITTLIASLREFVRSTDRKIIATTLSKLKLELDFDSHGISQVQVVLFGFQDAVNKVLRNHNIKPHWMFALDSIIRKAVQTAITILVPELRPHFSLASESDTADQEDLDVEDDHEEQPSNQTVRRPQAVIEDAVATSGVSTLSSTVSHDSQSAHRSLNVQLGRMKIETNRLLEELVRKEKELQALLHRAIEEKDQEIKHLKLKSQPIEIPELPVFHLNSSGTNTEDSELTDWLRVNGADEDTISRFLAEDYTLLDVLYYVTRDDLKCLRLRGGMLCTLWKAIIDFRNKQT
Test: radiometric filter-binding kinase assay, Kinase HotSpot
Conditions: compound 0.5 µM; ATP 10 µM
assay-metric: residual activity (%)
Output spec: scalar in %, unitless text.

CCCCc1c(-c2ccc(O)cc2)[nH]c2nccnc12 99.3
N#CCCc1ccc2c(c1)-c1[nH]c3ccc([N+](=O)[O-])cc3c1CC(=O)N2 101
Cc1cc(Nc2nc(-c3ccccc3)nc3ccccc23)n[nH]1 99.5
O=S(=O)(NCCNC/C=C/c1ccc(Br)cc1)c1cccc2cnccc12 93.2
COc1cc2ncnc(Nc3ccc(O)c(Br)c3)c2cc1OC 98.6

Report residual activity from MAP3K5 (human) (UniProt Q99683) testing of `Nc1ncnc2c1cnn2-c1ccccc1` 100

Report residual activity from MAP3K5 (human) (UniProt Q99683) testing of `O=C1NC(=O)c2c1c1c3ccccc3[nH]c1c1[nH]c3cc(Br)ccc3c21` 94.9

Report residual activity from MAP3K5 (human) (UniProt Q99683) testing of `O=c1cc(N2CCOCC2)oc2c(-c3ccccc3)cccc12` 96.2

Report residual activity from MAP3K5 (human) (UniProt Q99683) testing of `N/C(=N\N=C/c1ccc(-c2cccc([N+](=O)[O-])c2)o1)N[N+](=O)[O-]` 92.5

Report residual activity from MAP3K5 (human) (UniProt Q99683) testing of `CCc1nc(-c2ccc(OC)cc2)[nH]c1-c1ccncc1` 105
